- Assay Info: yeast proliferation inhibition, dose response, BY4741, OD595, 24 h (AID 489042)
- Recorded Conditions: S. cerevisiae BY4741 growth
Activity calls are given as the source filed them. Cut-off read from the data, not from the text of the source: active = inhibition score above about 11; inactive = the rest.
Write down the outcome that applies. Available outcomes: active, inactive

Could you please tell me the result logged for CCN(CC)C(=O)c1cccc2nc3ccccc3nc12 in this assay? inactive

Could you please tell me the result logged for CC(C)(C)Nc1ncnc2c1cnn2-c1ccccc1 in this assay? inactive

Could you please tell me the result logged for COc1ccc2c(c1)c1nnc(SC)nc1n2C in this assay? active

Could you please tell me the result logged for COc1ccc2nc3ccccc3nc2c1N in this assay? inactive

Could you please tell me the result logged for CC(C)(C)n1nc(-c2ccc(F)cc2)c2c(N)ncnc21 in this assay? active

Could you please tell me the result logged for Cc1cc(C)c2[nH]c3nc(SCC(=O)O)nnc3c2c1 in this assay? inactive
